Hello, the source for this data is patent US20250003877A1, in case you need it.

Quick reference: ϕ (quantum yield) of the listed items.
Conditions: PBS, pH 7.4
Keep the answer to the number alone.

Worked cases, answers included:
[
  {
    "compound": "C[Si@]1(CCCCl)c2cc(N3CCC3)ccc2[C@]2(OC(=O)c3ccccc32)c2ccc(N3CCC3)cc21",
    "readout-kind": "ϕ (quantum yield)",
    "observed-result": 0.53
  },
  {
    "compound": "Cc1ccccc1C1=C2C=CC(=[N+](C)C)C=C2[Si](C)(CCCCl)c2cc(N(C)C)ccc21 (centres unmarked)",
    "readout-kind": "ϕ (quantum yield)",
    "observed-result": 0.36
  }
]

(Q) Which measured ϕ (quantum yield) value corresponds to "CCOC(=O)CSCCC[Si@]1(C)c2cc(N(C)C)ccc2[C@]2(OC(=O)c3ccccc32)c2ccc(N(C)C)cc21" ?
(A) 0.45

(Q) Form field: reported ϕ (quantum yield) of Cc1ccccc1C1=C2C=CC(=[N+](C)C)C=C2[Si](C)(c2cccc(N(C)C)c2)c2cc(N(C)C)ccc21 (centres unmarked)
(A) 0.02

(Q) Data request, read-out ϕ (quantum yield), for "Cc1ccccc1C1=c2cc3c(cc2[Si](c2ccccc2)(c2ccccc2)c2cc4c(cc21)CCN4C)=[N+](C)CC3"
(A) 0.11

(Q) Using the record for "C=C[Si]1(C=C)C2=CC(=[N+](C)C)C=CC2=C(c2ccccc2C)c2ccc(N(C)C)cc21" , report its ϕ (quantum yield).
(A) 0.36

(Q) Dear colleague, I am looking for the recorded ϕ (quantum yield) of the following compound: C=C[Si]1(c2ccccc2)C2=CC(=[N+](C)C)C=CC2=C(c2ccccc2C)c2ccc(N(C)C)cc21 (centres unmarked)
(A) 0.36

(Q) Value lookup for ϕ (quantum yield); key = "Cc1ccccc1C1=C2C=CC(=[N+](C)C)C=C2[Si]2(CCCCC2)c2cc(N(C)C)ccc21"
(A) 0.33

---

Settings: PBS
readout-kind: Em (nm)
Please reply with the bare figure in nm and do not write the unit itself.

Worked set:
[
  {
    "compound": "Cc1ccccc1C1=C2C=CC(=[N+](C)C)C=C2[Si]2(CCCCC2)c2cc(N(C)C)ccc21",
    "output-unit": "nm",
    "observed-result": 666
  },
  {
    "compound": "C=C[Si]1(C)C2=CC(=[N+](C)C)C=CC2=C(c2ccccc2C)c2ccc(N(C)C)cc21 (stereo not shown)",
    "output-unit": "nm",
    "observed-result": 668
  },
  {
    "compound": "Cc1ccccc1C1=c2cc3c(cc2[Si](C)(CCCCl)c2cc4c(cc21)CCN4C)=[N+](C)CC3 (stereo not shown)",
    "output-unit": "nm",
    "observed-result": 717
  },
  {
    "compound": "CN(C)c1ccc2c(c1)[Si@](C)(CCCI)c1cc(N(C)C)ccc1[C@@]21OC(=O)c2ccccc21",
    "output-unit": "nm",
    "observed-result": 665
  },
  {
    "compound": "C=C[Si]1(C=C)c2cc3c(cc2C(c2ccccc2C)=c2cc4c(cc21)=[N+](C)CCC4)CCCN3C",
    "output-unit": "nm",
    "observed-result": 702
  }
]

(Q) Reported Em (nm), compound "CN(C)c1ccc2c(c1)[Si@](C)(CCCSCC(=O)O)c1cc(N(C)C)ccc1[C@@]21OC(=O)c2ccccc21" : ____
(A) 665

(Q) Quick one: Em (nm) of Cc1ccccc1C1=C2C=CC(=[N+](C)C)C=C2[Si](C)(c2ccccc2)c2cc(N(C)C)ccc21 (stereo not shown) ?
(A) 670
